Biological target: rat 5-HT7 receptor (Rattus norvegicus (Rat), UniProt P32305)
Sequence (P32305 1-435): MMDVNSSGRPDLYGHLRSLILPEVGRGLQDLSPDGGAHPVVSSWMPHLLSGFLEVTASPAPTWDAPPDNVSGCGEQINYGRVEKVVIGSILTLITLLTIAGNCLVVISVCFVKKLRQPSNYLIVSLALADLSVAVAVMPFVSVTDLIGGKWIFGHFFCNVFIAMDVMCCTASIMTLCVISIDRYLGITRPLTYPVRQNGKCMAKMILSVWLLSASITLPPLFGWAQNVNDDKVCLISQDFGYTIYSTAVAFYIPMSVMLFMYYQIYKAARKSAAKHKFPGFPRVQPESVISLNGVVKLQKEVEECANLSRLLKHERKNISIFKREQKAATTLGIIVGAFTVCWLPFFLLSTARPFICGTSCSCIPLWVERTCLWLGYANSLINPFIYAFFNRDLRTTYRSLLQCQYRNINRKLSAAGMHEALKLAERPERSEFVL
Assay: r5-HT7 binding assay, competitive radioligand binding with [3H]5-CT
Conditions: rat 5-HT7, HEK-293 membranes
Each record here notes measured Ki.

Bench note, rat 5-HT7 receptor (Rattus norvegicus (Rat), UniProt P32305): entry Fc1ccc(Oc2cc(Cl)ccc2O[C@H]2CCNC2)cc1 [Example 269] , its Ki = > 10000 nM

Given the compound CN1CC(COc2cc(Br)ccc2OCc2cccc(Cl)c2)C1 [Example 234] and test system rat 5-HT7 receptor (Rattus norvegicus (Rat), UniProt P32305), the measured Ki is 130 nM

Sample CC(C)N1CC(Oc2ccc(Cl)cc2OC2CNC2)C1 [Example 224] , system: rat 5-HT7 receptor (Rattus norvegicus (Rat), UniProt P32305). Its Ki is 68 nM

For the compound Brc1ccc(Oc2ccccc2)c(OC2CNC2)c1 [Example 244, 3-(5-Bromo-2-phenoxy-phenoxy)-azetidine] , the measured Ki on rat 5-HT7 receptor (Rattus norvegicus (Rat), UniProt P32305) was 20 nM

Observed Ki, rat 5-HT7 receptor (Rattus norvegicus (Rat), UniProt P32305), COc1cccc(Oc2ccc(Br)cc2OC2CNC2)c1 [Example 248] : 43 nM

###

Target: h5HT2B (Homo sapiens (Human))
Sequence (P41595 whole entry): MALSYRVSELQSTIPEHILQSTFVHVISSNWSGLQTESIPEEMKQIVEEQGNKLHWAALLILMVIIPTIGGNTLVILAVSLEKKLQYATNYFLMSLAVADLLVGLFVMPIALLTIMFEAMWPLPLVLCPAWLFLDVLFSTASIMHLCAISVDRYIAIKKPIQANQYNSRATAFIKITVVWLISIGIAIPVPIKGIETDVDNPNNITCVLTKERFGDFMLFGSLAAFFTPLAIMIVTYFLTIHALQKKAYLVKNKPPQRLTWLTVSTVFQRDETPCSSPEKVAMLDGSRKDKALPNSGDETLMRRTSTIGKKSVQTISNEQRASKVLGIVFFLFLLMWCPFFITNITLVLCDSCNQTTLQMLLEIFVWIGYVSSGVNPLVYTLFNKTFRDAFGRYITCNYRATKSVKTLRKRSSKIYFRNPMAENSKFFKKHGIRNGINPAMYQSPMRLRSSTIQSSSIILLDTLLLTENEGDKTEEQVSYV
Test: h5HT2B binding
Checkbox rule: Ki lower than 0.02 µM = Condition met; Ki not lower than 0.02 µM = Condition not met.

Consider the following illustrative entries.
| COMPOUND | QUALITATIVE_LABEL |
| --- | --- |
| Brc1ccc(OCCc2ccccc2)c(OC2CNC2)c1 | Condition met |
| COc1cccc(CCOc2ccc(Cl)cc2OC2CNC2)c1 | Condition not met |
| FC(F)(F)c1ccnc(COc2ccc(Cl)cc2OC2CNC2)c1 | Condition not met |
| COC(COc1ccc(Cl)cc1OC1CNC1)c1ccccc1 (stereo not shown) | Condition not met |

Note: attention shifts to another entry.
query: State whether 0.02 µM exceeds Ki recorded for COc1ccc2c(c1)CC(Oc1ccc(Cl)cc1OC1CNC1)C2 (stereo not shown) .
result: Condition not met

###

Molecular target: rat 5-HT7 receptor (Rattus norvegicus (Rat), UniProt P32305)
Assay: r5-HT7 binding assay, competitive radioligand binding with [3H]5-CT
Conditions: rat 5-HT7, HEK-293 membranes
Structures can show the parent of a compound that is named as a salt.
RECORDED_METRIC: log10 of Ki (log10 of the value in nM)
A difference of one corresponds to tenfold Ki; all values are log10 with Ki in nM.

| MOLECULE | log10 of Ki |
| --- | --- |
| CC(Oc1ccc(Cl)cc1OC1CN(C(C)(C)C)C1)c1cccc(C(F)(F)F)c1 (centres unmarked) | 1.18 |
| CC1(Oc2cc(Br)ccc2OCc2cccc(Cl)c2)CNC1 | 1.72 |
| Clc1ccc(OC2CNC2)c(OC2CNC2)c1 | 2.92 |
| CCc1noc(COc2ccc(Cl)cc2OC2CNC2)n1 [Example 243, hydrochloride] | 2.66 |

We next turn to a different molecule, shown below.
Per the records, this molecule ( Clc1cccc(COc2ccc(Cl)cc2COC2CNC2)c1 ) has log10 of Ki equal to 2.30

###

Target: UniProt:P28335
Sequence (P28335 33-458): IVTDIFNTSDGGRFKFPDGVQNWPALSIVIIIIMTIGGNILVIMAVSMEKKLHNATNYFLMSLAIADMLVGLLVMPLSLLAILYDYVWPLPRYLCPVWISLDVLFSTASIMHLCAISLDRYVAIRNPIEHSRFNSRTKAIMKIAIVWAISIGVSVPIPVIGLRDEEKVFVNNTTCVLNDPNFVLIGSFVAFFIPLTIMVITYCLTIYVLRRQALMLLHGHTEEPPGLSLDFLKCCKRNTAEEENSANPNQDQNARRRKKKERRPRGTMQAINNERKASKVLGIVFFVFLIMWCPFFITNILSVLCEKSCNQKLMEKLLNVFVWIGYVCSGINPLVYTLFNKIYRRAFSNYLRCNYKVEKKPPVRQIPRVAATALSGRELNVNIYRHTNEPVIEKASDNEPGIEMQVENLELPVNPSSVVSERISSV
Test: h5HT2C binding
RECORDED_METRIC: Ki (nM)
// return numeric value only (unit: nM, not printed)

Would you please look over these solved cases?
| COMPOUND | UNIT_LABEL | MEASURED_NUMBER |
| --- | --- | --- |
| FC(F)(F)c1ccc2c(c1)C(Oc1ccc(Cl)cc1OC1CNC1)CC2 (stereo not drawn) [Example 160] | nM | 146 |
| Clc1ccc(OC2CCc3ccccc3C2)c(OC2CNC2)c1 (stereo not drawn) [Example 164] | nM | 181 |

The compound listed as CN1CC[C@@H](Oc2ccc(Cl)cc2OCc2cccc(Cl)c2)C1 [Example 93] has a reported Ki of 51

Data provenance: patent US9981909B2
